Below: a set of entries, each annotated with reported IC50.
Test system: U937 cells (human monocytic cell line)
assay-comment: Pam2CSK4-induced TNF-α secretion inhibition in PMA-differentiated U937 cells
Assay type: cell-based
condition-parameters: U-937, U937 cells differentiated with PMA, read-out: TNF-α production inhibition grade (IC50)

[[record]]
structure_smiles_string = "C[C@H](CCC(=O)N1CCC[C@@H]1CS(=O)(=O)O)[C@H]1CC[C@H]2[C@@H]3CC[C@@H]4CC(=O)CC[C@]4(C)[C@H]3CC[C@]12C"
result_type = "IC50"
experimental_result = "≥ 2000 nM"

[[record]]
structure_smiles_string = "CC(C)N(CCS(=O)(=O)O)C(=O)CC[C@@H](C)[C@H]1CC[C@H]2[C@@H]3CC[C@@H]4C[C@H](O)CC[C@]4(C)[C@H]3CC[C@]12C"
result_type = "IC50"
experimental_result = "≥ 2000 nM"

[[record]]
structure_smiles_string = "CC[C@H]1[C@@H](O)[C@@H]2[C@H](CC[C@]3(C)[C@@H]([C@H](C)CCC(=O)N[C@@H](CC(C)C)CS(=O)(=O)O)CC[C@@H]23)[C@@]2(C)CC[C@@H](O)C[C@@H]12"
result_type = "IC50"
experimental_result = "1000 to 2000 nM"

[[record]]
structure_smiles_string = "CC(C)N(CCS(=O)(=O)O)C(=O)CC[C@@H](C)[C@H]1CC[C@H]2[C@@H]3CC[C@@H]4CC(=O)CC[C@]4(C)[C@H]3CC[C@]12C"
result_type = "IC50"
experimental_result = "< 500 nM"

[[record]]
structure_smiles_string = "C[C@H](CCC(=O)NCCC(=O)O)[C@H]1CC[C@H]2[C@@H]3CC[C@@H]4C[C@H](O)CC[C@]4(C)[C@H]3CC[C@]12C"
result_type = "IC50"
experimental_result = "1000 to 2000 nM"

[[record]]
structure_smiles_string = "C[C@H](CCC(=O)N1CCC(S(=O)(=O)O)CC1)[C@H]1CC[C@H]2[C@@H]3CC[C@@H]4CC(=O)CC[C@]4(C)[C@H]3CC[C@]12C"
result_type = "IC50"
experimental_result = "500 to 1000 nM"

[[record]]
structure_smiles_string = "CC[C@H]1[C@@H](O)[C@@H]2[C@H](CC[C@]3(C)[C@@H]([C@H](C)CCC(=O)N4CCC(S(=O)(=O)O)CC4)CC[C@@H]23)[C@@]2(C)CC[C@@H](O)C[C@@H]12"
result_type = "IC50"
experimental_result = "500 to 1000 nM"

[[record]]
structure_smiles_string = "C[C@H](CCC(=O)N[C@H](Cc1ccccc1)CS(=O)(=O)O)[C@H]1CC[C@H]2[C@@H]3CC[C@@H]4C[C@H](O)CC[C@]4(C)[C@H]3C[C@H](O)[C@]12C"
result_type = "IC50"
experimental_result = "≥ 2000 nM"

[[record]]
structure_smiles_string = "C[C@H](CCC(=O)N1CCC[C@@H]1CS(=O)(=O)O)[C@H]1CC[C@H]2[C@@H]3[C@H](O)C[C@@H]4C[C@H](O)CC[C@]4(C)[C@H]3C[C@H](O)[C@]12C"
result_type = "IC50"
experimental_result = "≥ 2000 nM"


// next item, IC50 requested
Query (compound): C[C@H](CCC(=O)NC1(CS(=O)(=O)O)CC1)[C@H]1CC[C@H]2[C@@H]3CC[C@@H]4CC(=O)CC[C@]4(C)[C@H]3CC[C@]12C ; field requested: IC50
500 to 1000 nM
